tested on: IL-6-GFP PC-9GR; test: cell viability (CCK-8 OD) relative to DMSO control (fraction of control); higher = more viable cells; details: compound concentration: 10 uM; treatment time: 48 h
Provide the reported cell viability of each item.
One number for each entry.

Example compounds with recorded cell viability:
C=CC(=O)N1CCCC(n2nc(-c3ccc(Oc4ccccc4)cc3)c3c(N)ncnc32)C1 (stereo unspecified) : 0.572
O=C(O)Cc1ccccc1Nc1c(Cl)cccc1Cl.OCCN1CCCC1 : 1.34
CNC(=O)c1cc(Oc2ccc(NC(=O)Nc3ccc(Cl)c(C(F)(F)F)c3)cc2)ccn1 : 0.634
COc1cc(C2c3cc4c(cc3C(OC3OC5COC(c6cccs6)OC5C(O)C3O)C3COC(=O)C23)OCO4)cc(OC)c1O (stereo unspecified) [Teniposide] : 0.0642
C#Cc1cccc(Nc2ncnc3cc(OCCOC)c(OCCOC)cc23)c1.Cl [Erlotinib HCl (OSI-744)] : 0.817

Look at each compound and report its cell viability.
1. CN(C)C/C=C/C(=O)Nc1cc2c(Nc3ccc(F)c(Cl)c3)ncnc2cc1OC1CCOC1 (stereo unspecified)
2. CC/C(=C(/CC)c1ccc(O)cc1)c1ccc(O)cc1
3. CCS(=O)(=O)O.COC(=O)c1ccc2c(c1)NC(=O)/C2=C(\Nc1ccc(N(C)C(=O)CN2CCN(C)CC2)cc1)c1ccccc1 [Nintedanib Ethanesulfonate Salt]
4. CCc1cc2c(cc1N1CCC(N3CCOCC3)CC1)C(C)(C)c1[nH]c3cc(C#N)ccc3c1C2=O
5. CN1CCC(=C2c3ccccc3CCc3cccnc32)CC1.O=C(O)/C=C\C(=O)O.O=C(O)/C=C\C(=O)O [Azatadine dimaleate]
6. NC(CCC(=O)NC(CS)C(=O)NCC(=O)O)C(=O)O (stereo unspecified)
7. O=C1Nc2ccccc2/C1=C1\Nc2ccccc2C1=O

0.542
1.13
0.8
0.732
0.981
1.06
1.28

Look at each compound and report its cell viability.
1. Cc1coc2c1C(=O)C(=O)c1c-2ccc2c1CCCC2(C)C
2. CC(Oc1cc(-c2cnn(C3CCNCC3)c2)cnc1N)c1c(Cl)ccc(F)c1Cl (stereo unspecified)
3. CC(=O)Nc1ccccc1 [Acetanilide]
4. COC(=O)c1cc(OC)c2c(c1-c1c(CO)cc(OC)c3c1OCO3)OCO2

1. 1.37
2. 0.43
3. 1.31
4. 1.16

These measurements were taken from the supplement of paper PMC8866396.
